biological target: Thromboxane A2 receptor (Homo sapiens); format: functional, cell-based; further: assay procedure not described here
Sequence (P21731 whole entry): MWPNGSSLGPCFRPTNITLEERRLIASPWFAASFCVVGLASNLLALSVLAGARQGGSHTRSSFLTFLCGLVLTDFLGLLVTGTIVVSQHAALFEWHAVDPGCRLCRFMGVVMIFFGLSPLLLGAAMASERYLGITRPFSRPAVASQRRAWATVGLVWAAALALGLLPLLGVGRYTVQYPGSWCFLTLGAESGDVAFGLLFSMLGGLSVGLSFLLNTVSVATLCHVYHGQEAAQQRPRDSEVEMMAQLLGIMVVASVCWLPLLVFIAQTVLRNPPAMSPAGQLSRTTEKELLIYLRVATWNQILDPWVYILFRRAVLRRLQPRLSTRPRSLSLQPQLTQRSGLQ
parameter: AC50

Worked set:
NC(=O)NCCC[C@H](N)C(=O)O: > 30 µM
C1CNCCN1: > 30 µM

The recorded AC50 for entry CCOc1ccc2ccccc2c1C(=O)N[C@@H]1C(=O)N2[C@@H]1SC(C)(C)[C@@H]2C(=O)O equals > 30 µM

The recorded AC50 for entry CN1CCN(CCCN2c3ccccc3Sc3ccc(S(=O)(=O)N(C)C)cc32)CC1 equals 9.38 µM

The recorded AC50 for entry C#C[C@]1(O)CC[C@H]2[C@@H]3CCC4=C(CCC(=O)C4)[C@H]3CC[C@@]21C equals 24.2 µM

The recorded AC50 for entry CCOC(=O)[C@H](CCc1ccccc1)N[C@@H](C)C(=O)N1Cc2cc(OC)c(OC)cc2C[C@H]1C(=O)O equals > 30 µM

The recorded AC50 for entry CC[N+](C)(CC)CCOC(=O)C1c2ccccc2Oc2ccccc21 equals > 30 µM

The recorded AC50 for entry CC(=O)Oc1ccccc1C(=O)Nc1ncc([N+](=O)[O-])s1 [NITAZOXANIDE] equals > 10 µM

The recorded AC50 for entry c1ccc2[nH]c(-c3cscn3)nc2c1 equals > 30 µM
